- testSummary: in vivo
- Set-up: species or system Balb/c nu/nu mice
- conditionParameters: female, Balb/c nu/nu, mouse, iv, 1 MBq, total radioactivity, Tumor to organ ratio, Muscle
Peptide text beside a SMILES is read from it.
assayReadout: tissue to tissue ratio at 0.25 h

INSERT INTO assay_data (molecule, experimentalresult) VALUES
  ('CC(C)C[C@H](NC(=O)[C@@H]1CCCN1C(=O)[C@@H](NC(=O)[C@H](Cc1c[nH]cn1)NC(=O)[C@@H](N)CC(N)=O)C(C)C)C(=O)N[C@@H](CO)C(=O)N1CCC[C@H]1C(=O)N[C@H](Cc1ccc(O)c(I)c1)C(N)=O [^131I-CaIX-P1-4-10] (HELM PEPTIDE1{N.H.V.P.L.S.P.[O=C([C@@H](Cc1ccc(O)c(I)c1)N[*:1])[*:2]].[am]}$$$$V2.0; N-terminus assumed)', 3.36);

###

- testSummary: in vivo
- Parameters: species or system Balb/c nu/nu mice
- conditionParameters: female, Balb/c nu/nu, mouse, iv, 1 MBq, total radioactivity, Tumor to organ ratio, Lung
Peptide text beside a SMILES is read from it.
assayReadout: tissue to tissue ratio at 0.25 h

INSERT INTO assay_data (compound, experimentalresult) VALUES
  ('CC(C)C[C@H](NC(=O)[C@@H]1CCCN1C(=O)[C@@H](NC(=O)[C@H](Cc1c[nH]cn1)NC(=O)[C@@H](N)CC(N)=O)C(C)C)C(=O)N[C@@H](CO)C(=O)N1CCC[C@H]1C(=O)N[C@H](Cc1ccc(O)c(I)c1)C(N)=O [^131I-CaIX-P1-4-10] (HELM PEPTIDE1{N.H.V.P.L.S.P.[O=C([C@@H](Cc1ccc(O)c(I)c1)N[*:1])[*:2]].[am]}$$$$V2.0; N-terminus assumed)', 0.86);

###

- Tested on: SKRC 52 cells
- Type: binding, human
- conditionParameters: unlabeled competitor against 125I-CaIX-P1-4-10 on SKRC 52 cells; read-out: IC50
assayReadout: IC50 (µM)

INSERT INTO measurements (inputsequence, measuredtarget, experimentalresult) VALUES
  ('YNTNHVPLSPKY [CaIX-P1]', 'SKRC 52 cells', 1.5);

###

- testSummary: in vivo
- Design: species or system Balb/c nu/nu mice
- conditionParameters: female, Balb/c nu/nu, mouse, iv, 1 MBq, total radioactivity, Tumor to organ ratio, Blood
Peptide text beside a SMILES is read from it.
assayReadout: tissue to tissue ratio at 4 h

INSERT INTO results (compound, assayreadout, experimentalresult) VALUES
  ('CC(C)C[C@H](NC(=O)[C@@H]1CCCN1C(=O)[C@@H](NC(=O)[C@H](Cc1c[nH]cn1)NC(=O)[C@@H](N)CC(N)=O)C(C)C)C(=O)N[C@@H](CO)C(=O)N1CCC[C@H]1C(=O)N[C@H](Cc1ccc(O)c(I)c1)C(N)=O [^131I-CaIX-P1-4-10] (HELM PEPTIDE1{N.H.V.P.L.S.P.[O=C([C@@H](Cc1ccc(O)c(I)c1)N[*:1])[*:2]].[am]}$$$$V2.0; N-terminus assumed)', 'tissue to tissue ratio at 4 h', 0.67);

###

- testSummary: in vivo
- Parameters: species or system Balb/c nu/nu mice
- conditionParameters: female, Balb/c nu/nu, mouse, iv, 1 MBq, total radioactivity, Tumor to organ ratio, Kidney
Peptide text beside a SMILES is read from it.
assayReadout: tissue to tissue ratio at 4 h

INSERT INTO assay_data (molecule, experimentalresult) VALUES
  ('CC(C)C[C@H](NC(=O)[C@@H]1CCCN1C(=O)[C@@H](NC(=O)[C@H](Cc1c[nH]cn1)NC(=O)[C@@H](N)CC(N)=O)C(C)C)C(=O)N[C@@H](CO)C(=O)N1CCC[C@H]1C(=O)N[C@H](Cc1ccc(O)c(I)c1)C(N)=O [^131I-CaIX-P1-4-10] (HELM PEPTIDE1{N.H.V.P.L.S.P.[O=C([C@@H](Cc1ccc(O)c(I)c1)N[*:1])[*:2]].[am]}$$$$V2.0; N-terminus assumed)', 0.61);
